# measurementProtocol: small-molecule binders of probe aNOTCH3, primary screen, biochemical, small-molecule microarray, 635/667 nm fluorescence (AID 1120);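 note: probe is a biotin-tagged antibody raised against NOTCH3 rather than NOTCH3 protein; score merges spot fluorescence near 667 nm with spot signal to noise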
# particulars: higher = more signal
Here, each record is paired with measured composite z-score data.

compound	composite z-score
O=C1C[C@@](C(=O)NCC(F)(F)F)(c2ccc([N+](=O)[O-])cc2)[C@@H](c2ccc(CO)cc2I)N1CC12CC3CC(CC(C3)C1)C2	-0.056
COc1ccc([Si](C)(C)[C@@H]2[C@@H](CC(=O)N3Cc4ccccc4C[C@H]3CO)O[C@]3(C(=O)N(Cc4ccc(I)cc4)c4ccccc43)[C@H]2C)cc1	0.0676
O=C1OC[C@@H](c2ccccc2)n2cc(/C=C/c3ccccc3)cc21	-0.189
CC(CO)N1C(=O)[C@@H]2[C@H]3C(=O)OCC=C[C@H]3OC23C=CCN(c2ccc4ccccc4c2)C(=O)[C@@H]13 (some centres undefined)	-0.381
